biological target: human orexin-2 receptor (Homo sapiens, UniProt O43614); construct: expressed in transfected cells; host or cells: Chinese hamster ovary (CHO) cells; experiment: FLIPR calcium assay of orexin receptor antagonistic activity, CHO cells expressing the human orexin-2 receptor; format: cell-based; details: 3 nM orexin-A as agonist; normalized using IC50 of on-plate reference compound (asterisk); read-out: OX2 IC50 (in nM), normalized value
Sequence (O43614 whole entry): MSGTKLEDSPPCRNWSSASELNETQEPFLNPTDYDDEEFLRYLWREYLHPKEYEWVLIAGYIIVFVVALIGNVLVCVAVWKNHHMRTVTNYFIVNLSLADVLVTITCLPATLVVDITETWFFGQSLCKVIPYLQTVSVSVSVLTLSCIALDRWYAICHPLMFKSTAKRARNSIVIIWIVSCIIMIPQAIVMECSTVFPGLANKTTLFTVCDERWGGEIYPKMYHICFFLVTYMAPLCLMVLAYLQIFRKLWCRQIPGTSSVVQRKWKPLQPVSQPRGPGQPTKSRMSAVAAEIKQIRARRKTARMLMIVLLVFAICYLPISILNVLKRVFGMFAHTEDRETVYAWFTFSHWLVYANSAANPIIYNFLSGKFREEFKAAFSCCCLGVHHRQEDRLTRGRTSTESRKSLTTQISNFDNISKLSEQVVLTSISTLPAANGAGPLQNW
property name: IC50 (nM)

# molecule, units of measure, recorded measurement
records = [
    ("CCc1nc(C(F)(F)F)n2c1[C@H](CCc1ccc(C(F)(F)F)cc1)N([C@@H](C(=O)NC)c1ccccc1)CC2 [Example 28]", "nM", 13),
    ("CCc1nc(S(C)(=O)=O)c2n1CCN([C@@H](C(=O)NC)c1ccccc1)[C@H]2CCc1ccc(C(F)(F)F)cc1 [Example 23]", "nM", 25),
    ("CCc1nc(C2CC2)n2c1C(CCc1ccc(C(F)(F)F)c(F)c1)N(C(C(=O)NC)c1ccccc1)CC2 (centres unmarked) [Example 17]", "nM", 8),
]

I: CNC(=O)[C@@H](c1ccccc1)N1CCn2c(C3CC3)nc(Cl)c2[C@@H]1CCc1cccc(C(F)(F)F)c1 [Example 26]
II: CCOc1nc(C(F)(F)F)c2n1CCN([C@@H](C(=O)NC)c1ccccc1)[C@H]2CCc1ccc(C(F)(F)F)cc1 [Example 21]
Pick one: I or II . Which has the bigger IC50 number? Indicate which entry you chose by stating its label.
II

Where do the numbers come from? From patent US20110105514A1.
